organism: Homo sapiens; assay: Metabolic stability in human plasma assessed as compound remaining at 1 ug/ml after 30 mins
Please go through the items and note down their remaining at 0.5 h, 1 ug/ml.
Lab book: enter the figure in %, no units written.

Recorded remaining at 0.5 h, 1 ug/ml for CC(C)[C@H](NP(=O)(OC[C@H]1O[C@@H](n2cnc3c(=O)[nH]c(N)nc32)[C@](C)(O)[C@@H]1O)Oc1cccc2ccccc12)C(=O)OC1CCCCC1 (stereo partly specified) , please?
97

Recorded remaining at 0.5 h, 1 ug/ml for CCCCOC(=O)[C@H](C)NP(=O)(OC[C@H]1O[C@@H](n2cnc3c(=O)[nH]c(N)nc32)[C@](C)(O)[C@@H]1O)Oc1cccc2ccccc12 (stereo partly specified) , please?
100

Recorded remaining at 0.5 h, 1 ug/ml for CC(OC(=O)[C@H](C)NP(=O)(OC[C@H]1O[C@@H](n2cnc3c(=O)[nH]c(N)nc32)[C@](C)(O)[C@@H]1O)Oc1cccc2ccccc12)c1ccccc1 (mixture of isomers) , please?
86

Recorded remaining at 0.5 h, 1 ug/ml for C[C@H](NP(=O)(OC[C@H]1O[C@@H](n2cnc3c(=O)[nH]c(N)nc32)[C@](C)(O)[C@@H]1O)Oc1cccc2ccccc12)C(=O)OCc1ccccc1 (stereo partly specified) , please?
58

Recorded remaining at 0.5 h, 1 ug/ml for CC(C)[C@H](NP(=O)(OC[C@H]1O[C@@H](n2cnc3c(=O)[nH]c(N)nc32)[C@](C)(O)[C@@H]1O)Oc1cccc2ccccc12)C(=O)OCc1cccc(Cl)c1 (stereo partly specified) , please?
100

Recorded remaining at 0.5 h, 1 ug/ml for CC(C)[C@H](NP(=O)(OC[C@H]1O[C@@H](n2cnc3c(=O)[nH]c(N)nc32)[C@](C)(O)[C@@H]1O)Oc1cccc2ccccc12)C(=O)OCC(C)(C)C (stereo partly specified) , please?
91

* * *

test: Metabolic stability in dog intestine S9 fraction assessed as compound remaining at 10 uM after 30 mins by HPLC analysis in absence of NADP; assay type: ADME, tissue-based, Canis lupus familiaris; settings: read-out: Stability
Value type: remaining at 0.5 h, 10 µM (%)
Lab book: enter the figure in %, no units written.

Recorded remaining at 0.5 h, 10 µM for C[C@@]1(O)[C@H](O)[C@@H](COP(=O)(N[C@@H](Cc2ccccc2)C(=O)OCc2ccccc2)Oc2cccc3ccccc23)O[C@H]1n1cnc2c(=O)[nH]c(N)nc21 (stereo partly specified) , please?
0

* * *

assay: Metabolic stability in rat plasma assessed as compound remaining at 1 ug/ml after 30 mins; format: ADME, cell-free; details: read-out: Stability
// NB: equality with 1% counts as Not met; only remaining at 0.5 h, 1 ug/ml strictly below is Met

Input CC(C)[C@H](NP(=O)(OC[C@H]1O[C@@H](n2cnc3c(=O)[nH]c(N)nc32)[C@](C)(O)[C@@H]1O)Oc1ccc2ccccc2c1)C(=O)OCc1ccccc1 (stereo partly specified) ; condition: remaining at 0.5 h, 1 ug/ml strictly below 1%. Does it hold?
Not met

Input CSCC[C@H](NP(=O)(OC[C@H]1O[C@@H](n2cnc3c(=O)[nH]c(N)nc32)[C@](C)(O)[C@@H]1O)Oc1cccc2ccccc12)C(=O)OC(C)C (stereo partly specified) ; condition: remaining at 0.5 h, 1 ug/ml strictly below 1%. Does it hold?
Not met

Input CCCCCOC(=O)[C@H](C)NP(=O)(OC[C@H]1O[C@@H](n2cnc3c(=O)[nH]c(N)nc32)[C@](C)(O)[C@@H]1O)Oc1cccc2ccccc12 (stereo partly specified) ; condition: remaining at 0.5 h, 1 ug/ml strictly below 1%. Does it hold?
Met

Input C[C@H](NP(=O)(OC[C@H]1O[C@@H](n2cnc3c(=O)[nH]c(N)nc32)[C@](C)(O)[C@@H]1O)Oc1cccc2ccccc12)C(=O)OCc1ccccc1 (stereo partly specified) ; condition: remaining at 0.5 h, 1 ug/ml strictly below 1%. Does it hold?
Not met

Input C[C@H](NP(=O)(OC[C@H]1O[C@@H](n2cnc3c(=O)[nH]c(N)nc32)[C@](C)(O)[C@@H]1O)Oc1cccc2ccccc12)C(=O)OC1CCCCC1 (stereo partly specified) ; condition: remaining at 0.5 h, 1 ug/ml strictly below 1%. Does it hold?
Not met

Input C[C@H](NP(=O)(OC[C@H]1O[C@@H](n2cnc3c(=O)[nH]c(N)nc32)[C@](C)(O)[C@@H]1O)Oc1cccc2ccccc12)C(=O)O[C@@H](C)c1ccccc1 (stereo partly specified) ; condition: remaining at 0.5 h, 1 ug/ml strictly below 1%. Does it hold?
Met

* * *

assay: Metabolic stability in rat plasma assessed as compound remaining at 1 ug/ml after 30 mins; format: ADME, cell-free; conditions: read-out: Stability
Please go through the items and note down their remaining at 0.5 h, 1 ug/ml.
Lab book: enter the figure in %, no units written.

Recorded remaining at 0.5 h, 1 ug/ml for CCCCOC(=O)[C@H](C)NP(=O)(OC[C@H]1O[C@@H](n2cnc3c(=O)[nH]c(N)nc32)[C@](C)(O)[C@@H]1O)Oc1cccc2ccccc12 (some centres undefined) , please?
0.4

Recorded remaining at 0.5 h, 1 ug/ml for CC(OC(=O)[C@H](C)NP(=O)(OC[C@H]1O[C@@H](n2cnc3c(=O)[nH]c(N)nc32)[C@](C)(O)[C@@H]1O)Oc1cccc2ccccc12)c1ccccc1 (mixture of isomers) , please?
0.7

Recorded remaining at 0.5 h, 1 ug/ml for CC(C)[C@@H](NP(=O)(OC[C@H]1O[C@@H](n2cnc3c(=O)[nH]c(N)nc32)[C@](C)(O)[C@@H]1O)Oc1cccc2ccccc12)C(=O)OCc1ccccc1 (some centres undefined) , please?
82

Recorded remaining at 0.5 h, 1 ug/ml for CC(C)(NP(=O)(OC[C@H]1O[C@@H](n2cnc3c(=O)[nH]c(N)nc32)[C@](C)(O)[C@@H]1O)Oc1cccc2ccccc12)C(=O)OCc1ccccc1 (some centres undefined) , please?
0

* * *

assay: Metabolic stability in dog liver S9 fraction assessed as compound remaining at 10 uM after 60 mins by HPLC analysis in presence of NADP; type: ADME, subcellular, Canis lupus familiaris; settings: read-out: Stability
Value type: remaining at 1 h, 10 µM
Form field: result (number plus unit)

Recorded remaining at 1 h, 10 µM for CC(C)[C@H](NP(=O)(OC[C@H]1O[C@@H](n2cnc3c(=O)[nH]c(N)nc32)[C@](C)(O)[C@@H]1O)Oc1cccc2ccccc12)C(=O)OCc1ccccc1 (stereo partly drawn) , please?
56%

Recorded remaining at 1 h, 10 µM for COC(=O)[C@H](C)NP(=O)(OC[C@H]1O[C@@H](n2cnc3c(=O)[nH]c(N)nc32)[C@](C)(O)[C@@H]1O)Oc1cccc2ccccc12 (stereo partly drawn) , please?
67%

Recorded remaining at 1 h, 10 µM for CC[C@H](C)[C@H](NP(=O)(OC[C@H]1O[C@@H](n2cnc3c(=O)[nH]c(N)nc32)[C@](C)(O)[C@@H]1O)Oc1cccc2ccccc12)C(=O)OCc1ccccc1 (stereo partly drawn) , please?
64%

Recorded remaining at 1 h, 10 µM for C[C@H](NP(=O)(OC[C@H]1O[C@@H](n2cnc3c(=O)[nH]c(N)nc32)[C@](C)(O)[C@@H]1O)Oc1cccc2ccccc12)C(=O)OCC(C)(C)C (stereo partly drawn) , please?
49%

Recorded remaining at 1 h, 10 µM for COC(=O)[C@H](CCSC)NP(=O)(OC[C@H]1O[C@@H](n2cnc3c(=O)[nH]c(N)nc32)[C@](C)(O)[C@@H]1O)Oc1cccc2ccccc12 (stereo partly drawn) , please?
40%

Recorded remaining at 1 h, 10 µM for C[C@H](NP(=O)(OC[C@H]1O[C@@H](n2cnc3c(=O)[nH]c(N)nc32)[C@](C)(O)[C@@H]1O)Oc1ccc2ccccc2c1)C(=O)OCc1ccccc1 (stereo partly drawn) , please?
33%

Recorded remaining at 1 h, 10 µM for CC(C)C[C@H](NP(=O)(OC[C@H]1O[C@@H](n2cnc3c(=O)[nH]c(N)nc32)[C@](C)(O)[C@@H]1O)Oc1cccc2ccccc12)C(=O)OCc1ccccc1 (stereo partly drawn) , please?
14%

Recorded remaining at 1 h, 10 µM for CC(C)OC(=O)[C@H](C)NP(=O)(OC[C@H]1O[C@@H](n2cnc3c(=O)[nH]c(N)nc32)[C@](C)(O)[C@@H]1O)Oc1cccc2ccccc12 (stereo partly drawn) , please?
81%

* * *

experiment: Metabolic stability in dog intestine S9 fraction assessed as compound remaining at 10 uM after 60 mins by HPLC analysis in presence of NADP; format: ADME, tissue-based, Canis lupus familiaris; details: read-out: Stability
// NB: equality with 50% counts as 0; only remaining at 1 h, 10 µM strictly below is 1

Input CC(C)[C@H](NP(=O)(OC[C@H]1O[C@@H](n2cnc3c(=O)[nH]c(N)nc32)[C@](C)(O)[C@@H]1O)Oc1cccc2ccccc12)C(=O)OCc1ccccc1 (stereo partly drawn) ; condition: remaining at 1 h, 10 µM strictly below 50%. Does it hold?
0

Input C[C@H](NP(=O)(OC[C@H]1O[C@@H](n2cnc3c(=O)[nH]c(N)nc32)[C@](C)(O)[C@@H]1O)Oc1ccc2ccccc2c1)C(=O)OCc1ccccc1 (stereo partly drawn) ; condition: remaining at 1 h, 10 µM strictly below 50%. Does it hold?
1

Input C[C@H](NP(=O)(OC[C@H]1O[C@@H](n2cnc3c(=O)[nH]c(N)nc32)[C@](C)(O)[C@@H]1O)Oc1cccc2ccccc12)C(=O)OCC(C)(C)C (stereo partly drawn) ; condition: remaining at 1 h, 10 µM strictly below 50%. Does it hold?
1

Input CC(C)C[C@H](NP(=O)(OC[C@H]1O[C@@H](n2cnc3c(=O)[nH]c(N)nc32)[C@](C)(O)[C@@H]1O)Oc1cccc2ccccc12)C(=O)OCc1ccccc1 (stereo partly drawn) ; condition: remaining at 1 h, 10 µM strictly below 50%. Does it hold?
1

Input COC(=O)[C@H](CCSC)NP(=O)(OC[C@H]1O[C@@H](n2cnc3c(=O)[nH]c(N)nc32)[C@](C)(O)[C@@H]1O)Oc1cccc2ccccc12 (stereo partly drawn) ; condition: remaining at 1 h, 10 µM strictly below 50%. Does it hold?
0

Input CC(C)OC(=O)[C@H](C)NP(=O)(OC[C@H]1O[C@@H](n2cnc3c(=O)[nH]c(N)nc32)[C@](C)(O)[C@@H]1O)Oc1cccc2ccccc12 (stereo partly drawn) ; condition: remaining at 1 h, 10 µM strictly below 50%. Does it hold?
0

Input CC[C@H](C)[C@H](NP(=O)(OC[C@H]1O[C@@H](n2cnc3c(=O)[nH]c(N)nc32)[C@](C)(O)[C@@H]1O)Oc1cccc2ccccc12)C(=O)OCc1ccccc1 (stereo partly drawn) ; condition: remaining at 1 h, 10 µM strictly below 50%. Does it hold?
0
